// provenance: patent US11311520B2

assayed-system: human full-length MKNK1 (Homo sapiens (Human), UniProt Q9BUB5, T344D)
Sequence (Q9BUB5 other isoform, or with tags, fused parts or gaps T344D): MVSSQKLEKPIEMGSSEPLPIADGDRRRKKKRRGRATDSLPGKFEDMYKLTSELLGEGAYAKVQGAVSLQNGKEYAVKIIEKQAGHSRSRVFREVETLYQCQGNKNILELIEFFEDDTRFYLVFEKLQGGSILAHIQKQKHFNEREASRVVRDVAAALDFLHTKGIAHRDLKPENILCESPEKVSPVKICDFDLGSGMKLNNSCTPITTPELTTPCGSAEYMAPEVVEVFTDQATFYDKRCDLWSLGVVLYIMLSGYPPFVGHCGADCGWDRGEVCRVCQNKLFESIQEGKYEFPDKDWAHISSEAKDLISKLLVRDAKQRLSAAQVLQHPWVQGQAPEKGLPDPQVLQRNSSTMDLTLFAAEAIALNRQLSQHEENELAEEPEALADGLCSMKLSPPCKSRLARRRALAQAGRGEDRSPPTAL
run-description: MKNK1 kinase high ATP assay (TR-FRET)
Assay type: biochemical
condition: 2 mM ATP, 15 min preincubation with enzyme, GST-MKNK1 (T344D)
pIC50: −log10 of the molar value.
readout-label: pIC50

smiles-notation	modifier	observed
COCCN(C)C(=O)c1cc2c(Nc3cc(C)c4n(c3=O)C3(CCCCC3)NC4=O)ncnc2s1	=	7.43
Cc1cc(Nc2ncnc3sc(C(=O)N(C)CCN(C)C)cc23)c(=O)n2c1C(=O)NC21CCC1	=	8.13
Cc1cc(Nc2ncnc3c2ncn3CCO)c(=O)n2c1C(=O)NC21CCCCC1	=	6.33
Cc1cc(Nc2ncnc3cccc(Cl)c23)c(=O)n2c1C(=O)NC21CCCCC1	=	7.99
Cc1cc(Nc2ncnc3c(C)cccc23)c(=O)n2c1C(=O)NC21CCCCC1	<	4.70
Cc1cc(Nc2ncnc3sc(C(=O)N(C)C)c(C)c23)c(=O)n2c1C(=O)NC21CCCCC1	=	7.18
Cc1cc(Nc2ncnc3[nH]ccc23)c(=O)n2c1C(=O)NC21CCC(F)(F)CC1	=	9.15
Cc1cc(Nc2ncnc3sc(C(=O)O)c(C)c23)c(=O)n2c1C(=O)NC21CCCCC1	=	7.67

###

assayed-system: human full-length MKNK1 (Homo sapiens (Human), UniProt Q9BUB5, T344D)
run-description: MKNK1 kinase high ATP assay (TR-FRET)
Type: biochemical
condition: 2 mM ATP, 15 min preincubation with enzyme, GST-MKNK1 (T344D)
Experimental: MKNK1 Kinase High ATP Assay MKNK1-inhibitory activity at high ATP of compounds of the present invention after their preincubation with MKNK1 was quantified employing the TR-FRET-based MKNK1 high ATP assay as described in the following paragraphs. […]
readout-label: IC50 (nM)

smiles-notation	assayed-system	readout-label	observed
Cc1cc(Nc2ncnc3[nH]ccc23)c(=O)n2c1C(=O)NC21CSC1	human full-length MKNK1 (Homo sapiens (Human), UniProt Q9BUB5, T344D)	IC50	1.1
Cc1cc(Nc2ncnc3[nH]ncc23)c(=O)n2c1C(=O)NC21CCCC1	human full-length MKNK1 (Homo sapiens (Human), UniProt Q9BUB5, T344D)	IC50	1.8
Cc1cc(Nc2ncnc3sc(C(=O)N4CC(N)C4)cc23)c(=O)n2c1C(=O)NC21CCC1	human full-length MKNK1 (Homo sapiens (Human), UniProt Q9BUB5, T344D)	IC50	5
Cc1cc(Nc2ncnc3[nH]ccc23)c(=O)n2c1C(=O)NC21CCCC1	human full-length MKNK1 (Homo sapiens (Human), UniProt Q9BUB5, T344D)	IC50	0.3
Cc1cc(Nc2ncnc3ccc(Cl)cc23)c(=O)n2c1C(=O)NC2(C)C	human full-length MKNK1 (Homo sapiens (Human), UniProt Q9BUB5, T344D)	IC50	45.9

###

Quick reference for pIC50 among some compounds
assayed-system: human full-length MKNK1 (Homo sapiens (Human), UniProt Q9BUB5, T344D)
run-description: MKNK1 kinase high ATP assay (TR-FRET)
Format: biochemical
condition: 2 mM ATP, 15 min preincubation with enzyme, GST-MKNK1 (T344D)
Procedure: MKNK1 Kinase High ATP Assay MKNK1-inhibitory activity at high ATP of compounds of the present invention after their preincubation with MKNK1 was quantified employing the TR-FRET-based MKNK1 high ATP assay as described in the following paragraphs. […]
pIC50: −log10 of the molar value.
readout-label: pIC50

smiles-notation	observed
Cc1cc(Nc2ncnc3ccc(Cl)cc23)c(=O)n2c1C(=O)NC21CCS(=O)(=O)CC1	7.25
Cc1cc(Nc2ncnc3ccccc23)c(=O)n2c1C(=O)NC21CS(=O)(=O)C1	6.58
Cc1cc(Nc2ncnc3sc(C(=O)N(C)C)cc23)c(=O)n2c1C(=O)NC21CCCCC1	7.77
Cc1cc(Nc2ncnc3sc(C(=O)N4C[C@H]5C[C@@H]4CN5C)cc23)c(=O)n2c1C(=O)NC21CCCCC1	8.72
Cc1cc(Nc2ncnc3sc(C(=O)O)cc23)c(=O)n2c1C(=O)NC21CCCCC1	7.08
Cc1cc(Nc2ncnc3sc(C(=O)NCCN(C)C)cc23)c(=O)n2c1C(=O)NC21CCCC1	8.57
Cc1cc(Nc2ncnc3ccc(Cl)cc23)c(=O)n2c1C(=O)NC21CCC(F)(F)CC1	7.73
Cc1cc(Nc2ncnc3ccc(Cl)cc23)c(=O)n2c1C(=O)NC21CSC1	7.84
Cc1cc(Nc2ncnc3c2CNC3)c(=O)n2c1C(=O)NC21CCCC1	7.69
Cc1cc(Nc2ncnc3sc(C(=O)N4CC(C#N)C4)cc23)c(=O)n2c1C(=O)NC21CCC1	8.28
Cc1cc(Nc2ncnc3c2CNC3)c(=O)n2c1C(=O)NC21CCCCC1	7.72
CCCNC(=O)Nc1ncnc(Nc2cc(C)c3n(c2=O)C2(CCCCC2)NC3=O)n1	7.73
Cc1cc(Nc2ncnc3sc(C(=O)N4CCN(C)CC4)cc23)c(=O)n2c1C(=O)NC21CCCCC1	7.57
Cc1cc(Nc2ncnc3[nH]ccc23)c(=O)n2c1C(=O)NC21CCS(=O)(=O)CC1	8.96
Cc1cc(Nc2ncnc3ccccc23)c(=O)n2c1C(=O)NC21CCC1	7.92
Cc1cc(Nc2ncnc3sc(C(=O)N4CCC(N(C)C)CC4)cc23)c(=O)n2c1C(=O)NC21CCCCC1	8.39
Cc1cc(Nc2ncnc3scnc23)c(=O)n2c1C(=O)NC2(C)C	6.42

###

assayed-system: human full-length MKNK1 (Homo sapiens (Human), UniProt Q9BUB5, T344D)
run-description: MKNK1 kinase high ATP assay (TR-FRET)
Type: biochemical
condition: 2 mM ATP, 15 min preincubation with enzyme, GST-MKNK1 (T344D)
readout-label: IC50 (nM)

smiles-notation	readout-label	result-units	observed
Cc1cc(Nc2ncnc3sc(C(=O)N4CC[C@@H](N(C)C)C4)cc23)c(=O)n2c1C(=O)NC21CCCCC1	IC50	nM	2.9
Cc1cc(Nc2ncnc3occc23)c(=O)n2c1C(=O)NC21CCCCC1	IC50	nM	13
Cc1cc(Nc2ncnc3sc(C(=O)N(C)CCN(C)C)c(C)c23)c(=O)n2c1C(=O)NC21CCCCC1	IC50	nM	40.3
Cc1cc(Nc2ncnc3ccccc23)c(=O)n2c1C(=O)NC21CCCC1	IC50	nM	7.3
Cc1cc(Nc2ncnc3cccc(C)c23)c(=O)n2c1C(=O)N[C@]21CC[C@@](O)(C(F)(F)F)CC1	IC50	nM	47
Cc1cc(Nc2ncnc3c2CN(C(=O)[C@@H]2CCC(=O)N2)C3)c(=O)n2c1C(=O)NC21CCCCC1	IC50	nM	55.9

###

assayed-system: human full-length MKNK1 (Homo sapiens (Human), UniProt Q9BUB5, T344D)
run-description: MKNK1 kinase high ATP assay (TR-FRET)
Assay type: biochemical
condition: 2 mM ATP, 15 min preincubation with enzyme, GST-MKNK1 (T344D)
pIC50: −log10 of the molar value.

compound	assayed-system	pIC50
Cc1cc(Nc2ncnc3sc(C(N)=O)c(C)c23)c(=O)n2c1C(=O)NC21CCCC1 [Example 107]	human full-length MKNK1 (Homo sapiens (Human), UniProt Q9BUB5, T344D)	6.95
Cc1cc(Nc2ncnc(N)n2)c(=O)n2c1C(=O)NC2(C)C [Example 131]	human full-length MKNK1 (Homo sapiens (Human), UniProt Q9BUB5, T344D)	7.49
Cc1cc(Nc2ncnc3sc(C(=O)N4C[C@@H]5C[C@H]4CO5)cc23)c(=O)n2c1C(=O)NC21CCCCC1 [Example 66]	human full-length MKNK1 (Homo sapiens (Human), UniProt Q9BUB5, T344D)	8.05
Cc1cc(Nc2ncnc3sc(C(=O)N4C[C@H]5C[C@@H]4CO5)cc23)c(=O)n2c1C(=O)NC21CCC(F)(F)CC1 [Example 88]	human full-length MKNK1 (Homo sapiens (Human), UniProt Q9BUB5, T344D)	7.87

###

Quick reference for IC50 among some compounds
assayed-system: human full-length MKNK1 (Homo sapiens (Human), UniProt Q9BUB5, T344D)
run-description: MKNK1 kinase high ATP assay (TR-FRET)
Format: biochemical
condition: 2 mM ATP, 15 min preincubation with enzyme, GST-MKNK1 (T344D)
readout-label: IC50 (nM)

compound	assayed-system	observed
Cc1cc(Nc2ncnc3sc(C(=O)N4C[C@H]5C[C@@H]4CO5)cc23)c(=O)n2c1C(=O)NC2(C)C [Example 144]	human full-length MKNK1 (Homo sapiens (Human), UniProt Q9BUB5, T344D)	12.9
Cc1cc(Nc2ncnc3sc(C(=O)N4CCC(N(C)C)CC4)cc23)c(=O)n2c1C(=O)NC21CCC1 [Example 157]	human full-length MKNK1 (Homo sapiens (Human), UniProt Q9BUB5, T344D)	7.9
Cc1cc(Nc2ncnc3c2CNC3)c(=O)n2c1C(=O)NC2(C)C [Example 165]	human full-length MKNK1 (Homo sapiens (Human), UniProt Q9BUB5, T344D)	168
Cc1cc(Nc2ncnc3c2CN(S(=O)(=O)c2ccccc2)C3)c(=O)n2c1C(=O)NC21CCCCC1 [Example 70]	human full-length MKNK1 (Homo sapiens (Human), UniProt Q9BUB5, T344D)	21.7
Cc1cc(Nc2ncnc3sc(C(=O)N4CC(NC(=O)OC(C)(C)C)C4)cc23)c(=O)n2c1C(=O)NC21CCC1 [Example 153]	human full-length MKNK1 (Homo sapiens (Human), UniProt Q9BUB5, T344D)	5.3
Cc1cc(Nc2ncnc3nc(CC(F)(F)F)[nH]c23)c(=O)n2c1C(=O)NC21CCCCC1 [Example 37]	human full-length MKNK1 (Homo sapiens (Human), UniProt Q9BUB5, T344D)	10.3
Cc1cc(Nc2ncnc3sc(C(=O)N4CC(C#N)C4)cc23)c(=O)n2c1C(=O)NC2(C)C [Example 141]	human full-length MKNK1 (Homo sapiens (Human), UniProt Q9BUB5, T344D)	24.2
Cc1cc(Nc2ncnc3[nH]ccc23)c(=O)n2c1C(=O)NC21CCC1 [Example 148]	human full-length MKNK1 (Homo sapiens (Human), UniProt Q9BUB5, T344D)	0.4
Cc1cc(Nc2ncnc3[nH]ccc23)c(=O)n2c1C(=O)N[C@]21CC[C@@](O)(C(F)(F)C(F)(F)F)CC1 [Example 194]	human full-length MKNK1 (Homo sapiens (Human), UniProt Q9BUB5, T344D)	12.2
Cc1cc(Nc2ncnc3sc(C(=O)N4CC(NC(=O)OC(C)(C)C)C4)cc23)c(=O)n2c1C(=O)NC21CCCCC1 [Example 27]	human full-length MKNK1 (Homo sapiens (Human), UniProt Q9BUB5, T344D)	4
Cc1cc(Nc2ncnc3sc(C(=O)N(C)CCN(C)C)cc23)c(=O)n2c1C(=O)NC2(C)C [Example 138]	human full-length MKNK1 (Homo sapiens (Human), UniProt Q9BUB5, T344D)	33.6
Cc1cc(Nc2ncnc3c2CN(S(C)(=O)=O)C3)c(=O)n2c1C(=O)NC21CCCCC1 [Example 69]	human full-length MKNK1 (Homo sapiens (Human), UniProt Q9BUB5, T344D)	144
Cc1cc(Nc2ncnc(NC(=O)C3CC3)n2)c(=O)n2c1C(=O)NC21CCC1 [Example 146]	human full-length MKNK1 (Homo sapiens (Human), UniProt Q9BUB5, T344D)	8.2
Cc1cc(Nc2ncnc3sc(C(=O)N4CC[C@H](N(C)C)C4)cc23)c(=O)n2c1C(=O)NC21CCCCC1 [Example 30]	human full-length MKNK1 (Homo sapiens (Human), UniProt Q9BUB5, T344D)	3.2
Cc1cc(Nc2ncnc3[nH]cnc23)c(=O)n2c1C(=O)NC21CCCCC1 [Example 24]	human full-length MKNK1 (Homo sapiens (Human), UniProt Q9BUB5, T344D)	1.5
